Biological target: recombinant human SAE enzyme (Homo sapiens (Human), UniProt Q9UBT2)
Sequence (Q9UBT2 whole entry): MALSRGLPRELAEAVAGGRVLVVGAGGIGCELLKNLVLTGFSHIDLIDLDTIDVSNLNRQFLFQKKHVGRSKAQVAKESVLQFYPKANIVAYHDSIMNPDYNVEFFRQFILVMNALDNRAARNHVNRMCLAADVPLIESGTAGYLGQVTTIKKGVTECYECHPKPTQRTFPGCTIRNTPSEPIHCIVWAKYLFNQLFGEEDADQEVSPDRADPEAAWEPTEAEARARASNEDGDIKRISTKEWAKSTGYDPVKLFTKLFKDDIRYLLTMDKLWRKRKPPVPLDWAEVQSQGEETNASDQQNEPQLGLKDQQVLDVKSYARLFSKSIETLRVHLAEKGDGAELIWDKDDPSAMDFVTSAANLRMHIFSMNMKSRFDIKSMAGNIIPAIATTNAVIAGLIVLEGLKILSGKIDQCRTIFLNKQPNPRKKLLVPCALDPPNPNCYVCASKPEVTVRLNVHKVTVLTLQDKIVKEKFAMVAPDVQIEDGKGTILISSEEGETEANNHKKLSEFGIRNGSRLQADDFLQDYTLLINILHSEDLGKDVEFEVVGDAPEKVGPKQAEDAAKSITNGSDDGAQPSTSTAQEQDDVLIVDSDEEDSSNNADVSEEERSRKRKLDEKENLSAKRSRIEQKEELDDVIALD
Sequence (Q9UBE0 whole entry partner): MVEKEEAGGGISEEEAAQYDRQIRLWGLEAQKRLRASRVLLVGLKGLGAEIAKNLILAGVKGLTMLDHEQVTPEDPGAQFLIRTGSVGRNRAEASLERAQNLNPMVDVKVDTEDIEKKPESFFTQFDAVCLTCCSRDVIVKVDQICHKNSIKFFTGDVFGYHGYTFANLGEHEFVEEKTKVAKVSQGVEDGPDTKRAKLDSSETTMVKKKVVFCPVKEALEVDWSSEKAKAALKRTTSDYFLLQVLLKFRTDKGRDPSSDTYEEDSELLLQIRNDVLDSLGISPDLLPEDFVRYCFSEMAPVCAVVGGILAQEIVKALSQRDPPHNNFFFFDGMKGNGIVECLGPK
Test: SAE HTRF enzyme assay
Format: biochemical
Conditions: class symbols A/B/C
Method: Example 215: SAE HTRF enzyme assay The SAE enzymatic reaction totals 50 μl and contains 50 mM HEPES Hemisodium (pH 7.5), 0.05% BSA, 5 mM MgCl2, 0.5 μM ATP, 250 μM GSH, 0.01 μM Ubc9-GST, 0.125 μM Sumo-Flag and 0.11 nM recombinant human SAE enzyme. […] After incubation for 2 hours at 24° C., quantification of FRET is performed on the Pherostar™ (BMG Labtech). Percentage inhibition values at a single concentration or enzyme inhibition (IC50) values are determined from those curves. […]
Entries and their measured IC50 follow.

Use the examples below as a reference point.
1. Cc1sc(C(=O)c2cncnc2N[C@@H]2C[C@H](COS(N)(=O)=O)[C@@H](O)C2)cc1[S@+]([O-])c1cccc(Cl)c1 (single isomer, unassigned) [I-28b]	< 10 nM
2. NS(=O)(=O)OC[C@H]1C[C@@H](Nc2ncncc2C(=O)c2cc(Cc3cccc(Cl)c3Cl)cs2)C[C@@H]1O	< 10 nM
3. COc1ccccc1[C@@H](O)c1cc(C(=O)c2cncnc2N[C@@H]2C[C@H](COS(N)(=O)=O)[C@@H](O)C2)sc1Cl (mixture of isomers)	< 10 nM

Fill in: IC50 of Cc1sc(C(=O)c2cncnc2N[C@@H]2C[C@H](COS(N)(=O)=O)[C@@H](O)[C@H]2O)cc1[C@@H]1OCCc2ccccc21 (single isomer, unassigned) [I-250a] is ___
< 10 nM

Fill in: IC50 of NS(=O)(=O)OCC1CC(Nc2ncncc2C(=O)c2cc(C(O)c3cccc(Cl)c3)c(CO)s2)CC1O (mixture of isomers) is ___
< 10 nM

Fill in: IC50 of CN[C@H](c1cccc(Cl)c1)c1csc(C(=O)c2cncnc2N[C@@H]2C[C@H](COS(N)(=O)=O)[C@@H](O)C2)c1 (single isomer, unassigned) [I-47a] is ___
< 10 nM

Fill in: IC50 of Cc1sc(C(=O)c2cncnc2N[C@@H]2C[C@H](COS(N)(=O)=O)[C@@H](O)C2)cc1[C@H]1OCC(F)(F)c2ccc(Cl)nc21 (mixture of isomers) [I-260] is ___
< 10 nM

Fill in: IC50 of NS(=O)(=O)OC[C@H]1C[C@@H](Nc2ncncc2C(=O)c2cc([C@H](O)c3cccc(Cl)c3)co2)C[C@@H]1O (single isomer, unassigned) [I-42a] is ___
< 10 nM

Fill in: IC50 of `NS(=O)(=O)OC[C@H]1C[C@@H](Nc2ncncc2C(=O)c2cc(COc3ccc(Cl)cc3)cs2)C[C@@H]1O` is ___
10 to 100 nM

Fill in: IC50 of `Cc1sc(C(=O)c2cncnc2N[C@@H]2C[C@H](COS(N)(=O)=O)[C@@H](O)C2)cc1Cn1cccn1` is ___
< 10 nM

Fill in: IC50 of Cc1sc(C(=O)c2cncnc2N[C@@H]2C[C@H](COS(N)(=O)=O)[C@@H](O)[C@@H]2F)cc1[C@H]1OCCc2ccc(Cl)cc21 (single isomer, unassigned) [I-264a] is ___
100 to 1000 nM

Fill in: IC50 of NS(=O)(=O)OC[C@H]1C[C@@H](Nc2ncncc2C(=O)c2cc([C@H](O)c3cccc(Cl)n3)c(Cl)s2)C[C@@H]1O (single isomer, unassigned) [I-2a] is ___
< 10 nM
